Tested on: SNB-75
Assay: NCI cytotoxicity screen, CNS Cancer panel
Format: cell-based
Conditions: Homo sapiens, single dose 10 µM, negative = lethal, read-out: Percent growth inhibition
EXPERIMENTAL_READOUT: inhibition at 10 µM

c1cn2cc(-c3ccc4c(c3)ncn4C3CCCCC3)nc(-c3ccc4c(c3)ncn4C3CCCCC3)c2n1 [Compound 30] : 6.25%
Brc1cn2ccnc2c(-c2ccc3c(c2)ncn3C2CCCCC2)n1 [Compound 8] : 16.4%
Fc1ccc(-c2cn3ccnc3c(-c3ccc4c(c3)ncn4C3CCCCC3)n2)cc1 [Compound 13] : < 1%
c1cn2cc(-c3ccsc3)nc(-c3ccc4c(c3)ncn4C3CCCCC3)c2n1 [Compound 14] : < 1%
COc1ccc(-c2cn3ccnc3c(-c3ccc4c(c3)ncn4C3CCCCC3)n2)cc1 [Compound 10] : 15.9%
c1csc(-c2cn3ccnc3c(-c3ccc4c(c3)ncn4C3CCCCC3)n2)c1 [Compound 22] : < 1%
c1ccc2c(-c3cn4ccnc4c(-c4ccc5c(c4)ncn5C4CCCCC4)n3)cccc2c1 [Compound 12] : 9.15%
c1ccc(-c2cn3ccnc3c(-c3ccc4c(c3)ncn4C3CCCCC3)n2)cc1 [Compound 9] : 5.65%
